Each recorded value in this set is attributed to patent US7514457B2.

Target: UniProt Q8NER1
Sequence (Q8NER1 whole entry): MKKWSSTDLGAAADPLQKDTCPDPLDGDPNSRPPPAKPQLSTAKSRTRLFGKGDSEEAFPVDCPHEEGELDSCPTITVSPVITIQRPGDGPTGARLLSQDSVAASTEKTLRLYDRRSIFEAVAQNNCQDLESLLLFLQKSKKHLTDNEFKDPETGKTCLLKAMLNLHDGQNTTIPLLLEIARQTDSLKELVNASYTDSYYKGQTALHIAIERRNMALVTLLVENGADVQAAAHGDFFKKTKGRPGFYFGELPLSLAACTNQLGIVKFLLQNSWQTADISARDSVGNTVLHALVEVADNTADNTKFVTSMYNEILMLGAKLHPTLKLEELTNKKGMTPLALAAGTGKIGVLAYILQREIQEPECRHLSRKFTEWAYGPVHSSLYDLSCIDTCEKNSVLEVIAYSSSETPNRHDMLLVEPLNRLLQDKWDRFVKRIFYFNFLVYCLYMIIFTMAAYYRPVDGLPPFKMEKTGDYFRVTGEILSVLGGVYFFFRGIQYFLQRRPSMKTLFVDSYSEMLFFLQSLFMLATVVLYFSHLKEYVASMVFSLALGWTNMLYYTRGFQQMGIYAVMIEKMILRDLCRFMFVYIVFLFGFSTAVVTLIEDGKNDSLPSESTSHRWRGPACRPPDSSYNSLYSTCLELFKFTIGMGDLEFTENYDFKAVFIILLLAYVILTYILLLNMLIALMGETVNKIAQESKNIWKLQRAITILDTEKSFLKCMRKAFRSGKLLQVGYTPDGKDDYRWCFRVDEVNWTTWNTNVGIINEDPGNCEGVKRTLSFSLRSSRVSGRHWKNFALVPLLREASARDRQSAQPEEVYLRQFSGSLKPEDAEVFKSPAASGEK
Experiment: Human VR1 antagonist assay (Ca2+ imaging)
Conditions: Ca2+ imaging in human VR1 expressing cells; agonist stimulation (capsaicin 300 nM or acid pH 5.8) not given
pIC50: −log10 of the molar value.
Measured Metric: pIC50

>>> print(df.to_string())
                                   compound  measured_metric  observed
0  CC(C)(C)c1ccc(OCC(=O)NCc2ccc3c(c2)CC(=O)N3)cc1Cl [Example 9]            pIC50      6.32
1  CC(NC(=O)COc1cc(F)c(C(C)(C)C)c(F)c1)c1ccc2ncsc2c1 (centres unmarked) [Example 15]            pIC50      7.15
2  CC(C)(C)c1ccc(OCC(=O)NCc2ccc3[nH]c(=O)oc3c2)cc1Cl [Example 10]            pIC50      6.38
3  CC(NC(=O)COc1cc(F)c(C(C)(C)C)c(F)c1)c1ccc2[nH]c(=O)[nH]c2c1 (centres unmarked) [Example 13]            pIC50      7.30
4  CC(C)(C)c1ccc(OCC(=O)NCc2ccc3[nH]cnc3c2)cc1 [Example 12]            pIC50      6.54
